Hello, the source for this data is patent US9040663B2, in case you need it.

// reported Ki per item
target: MC1-R; assay: Competitive inhibition binding assay using [I125]-NDP-α-MSH, MC1-R; settings: membranes of B-16 mouse melanoma cells (endogenous MC1-R), in some instances HEK-293 hMC1-R
Positions of bridges follow the written chain, without caps; N, C: chain ends. Non-standard residues stand in square brackets, D forms with d. Residues, ends and D or L forms follow the SMILES beside them. dPhe(4-CN) = N#Cc1ccc(C[C@@H](N)C(=O)O)cc1; Orn = NCCC[C@H](N)C(=O)O
Respond with the bare value in nM.

Incoming: Using the record for CC(=O)N[C@H](CCCNC(=N)N)C(=O)N[C@H]1CCCNC(=O)CC[C@@H](C(N)=O)NC(=O)[C@H](Cc2c[nH]c3ccccc23)NC(=O)[C@H](CCCNC(=N)N)NC(=O)[C@@H](Cc2ccccc2F)NC(=O)[C@H](Cc2c[nH]cn2)NC1=O , report its Ki.
Outgoing: 0.75

Incoming: Check CC(=O)N[C@@H](CCCNC(=N)N)C(=O)N[C@H]1CCC(=O)NCCC[C@@H](C(=O)O)NC(=O)[C@H](Cc2c[nH]c3ccccc23)NC(=O)[C@H](CCCNC(=N)N)NC(=O)[C@@H](Cc2ccc(C#N)cc2)NC(=O)[C@H](CCC(N)=O)NC1=O too.
Outgoing: 3970

Incoming: How about CC(=O)N[C@@H](CCCNC(=N)N)C(=O)N[C@H]1CCC(=O)NCCC[C@@H](C(N)=O)NC(=O)[C@H](Cc2c[nH]c3ccccc23)NC(=O)[C@H](CCCNC(=N)N)NC(=O)[C@@H](Cc2cccc(Cl)c2)NC(=O)[C@@H]2C[C@@H](O)CN2C1=O ?
Outgoing: 430

Further cases:
Incoming: May I ask what Ki has been recorded for CC(=O)N[C@H](CCCNC(=N)N)C(=O)N[C@H]1CCCNC(=O)CC[C@@H](C(N)=O)NC(=O)[C@H](Cc2c[nH]c3ccccc23)NC(=O)[C@H](CCCNC(=N)N)NC(=O)[C@@H](Cc2cccc(Cl)c2)NC(=O)[C@H](Cc2c[nH]cn2)NC1=O ?
Outgoing: 3

Incoming: Lookup CC(=O)N[C@@H](CCCNC(=N)N)C(=O)N[C@H]1CCC(=O)NCCC[C@@H](C(N)=O)NC(=O)[C@H](Cc2c[nH]c3ccccc23)NC(=O)[C@H](CCCNC(=N)N)NC(=O)[C@@H](Cc2ccccc2Cl)NC(=O)[C@H](CCC(N)=O)NC1=O
Outgoing: 128

Incoming: Check CC(=O)N[C@@H](CCCNC(=N)N)C(=O)N[C@H]1CCC(=O)NCCC[C@@H](C(N)=O)NC(=O)[C@H](Cc2c[nH]c3ccccc23)NC(=O)[C@H](CCCNC(=N)N)NC(=O)[C@@H](Cc2ccc(C#N)cc2)NC(=O)[C@H](C)NC1=O [Example 41] (Ac-REA[dPhe(4-CN)]RW[Orn]-NH2; lactam 2-7) too.
Outgoing: 4300

Incoming: Now consider CC(=O)N[C@@H](CCCNC(=N)N)C(=O)N[C@H]1CCC(=O)NCCC[C@@H](C(N)=O)NC(=O)[C@H](Cc2c[nH]c3ccccc23)NC(=O)[C@H](CCCNC(=N)N)NC(=O)[C@@H](Cc2ccccc2Cl)NC(=O)[C@H](Cc2cccc(C(N)=O)c2)NC1=O and answer again.
Outgoing: 545

Incoming: For CC(=O)N[C@H](CCCNC(=N)N)C(=O)N[C@H]1CCCNC(=O)CC[C@@H](C(N)=O)NC(=O)[C@H](Cc2c[nH]c3ccccc23)NC(=O)[C@H](CCCNC(=N)N)NC(=O)[C@@H](Cc2ccc(C#N)cc2)NC(=O)[C@H](Cc2c[nH]cn2)NC1=O then?
Outgoing: 6
